Molecular target: T1, H6MobC221 (pC221 MobC) (plasmid pC221, UniProt Q6V0Y1 1-132)
T1 sequence: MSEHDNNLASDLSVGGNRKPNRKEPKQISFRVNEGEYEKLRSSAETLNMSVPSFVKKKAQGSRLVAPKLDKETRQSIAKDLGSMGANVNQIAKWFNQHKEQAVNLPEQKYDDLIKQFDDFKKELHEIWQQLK
Test: SPR
RECORDED METRIC: Kd

[
  {
    "BINDER": "21P (mcb2 oligoduplex) (dsDNA) DNA 1: AACGAAGTGGCTAGAATATA DNA 2: TATATTCTAGCCACTTCGTT",
    "RECORDED METRIC": "Kd",
    "REPORTED VALUE": "~1800 nM"
  }
]
